Values were extracted from paper PMC9736874.

Readings of melting point for the listed compounds

These recorded examples may help you get a feel for the data.
{"COMPOUND": "CC(=O)N1N=C(c2ccccc2C)CC1c1ccccc1OCC(=O)NO (centres unmarked) [Compound 14k]", "PROPERTY": "melting point", "VALUE OBSERVED": "170 to 172 °C"}
{"COMPOUND": "CC(=O)N1N=C(c2cccc(Br)c2)CC1c1ccccc1OCC(=O)NO (centres unmarked) [Compound 14b]", "PROPERTY": "melting point", "VALUE OBSERVED": "152 to 154 °C"}
{"COMPOUND": "CC(=O)N1N=C(c2ccccc2Br)CC1c1ccccc1OCC(=O)NO (centres unmarked) [Compound 14a]", "PROPERTY": "melting point", "VALUE OBSERVED": "162 to 164 °C"}

Briefly, melting point measured for CC(=O)N1N=C(c2ccccc2I)CC1c1c(Br)cccc1OCC(=O)NO (centres unmarked) [Compound 14w] : 152 to 154 °C

Briefly, melting point measured for CC(=O)N1N=C(c2ccc(Br)cc2)CC1c1ccccc1OCC(=O)NO (centres unmarked) [Compound 14c] : 202 to 204 °C

Briefly, melting point measured for NC(=O)N1N=C(c2ccccc2OCc2ccccc2Br)CC1c1ccccc1OCC(=O)NO (centres unmarked) [Compound 14dd] : 92 to 94 °C

Briefly, melting point measured for CC(=O)N1N=C(c2ccccc2I)CC1c1ccc(Br)cc1OCC(=O)NO (centres unmarked) [Compound 14s] : 168 to 170 °C

Briefly, melting point measured for COc1ccccc1C1=NN(C(C)=O)C(c2ccccc2OCC(=O)NO)C1 (centres unmarked) [Compound 14d] : 170 to 172 °C

Briefly, melting point measured for CC(=O)N1N=C(c2ccccc2F)CC1c1ccccc1OCC(=O)NO (centres unmarked) [Compound 14g] : 176 to 178 °C

###

- EXPERIMENTAL TARGET: UniProt P15145
- Sequence (P15145 1-963): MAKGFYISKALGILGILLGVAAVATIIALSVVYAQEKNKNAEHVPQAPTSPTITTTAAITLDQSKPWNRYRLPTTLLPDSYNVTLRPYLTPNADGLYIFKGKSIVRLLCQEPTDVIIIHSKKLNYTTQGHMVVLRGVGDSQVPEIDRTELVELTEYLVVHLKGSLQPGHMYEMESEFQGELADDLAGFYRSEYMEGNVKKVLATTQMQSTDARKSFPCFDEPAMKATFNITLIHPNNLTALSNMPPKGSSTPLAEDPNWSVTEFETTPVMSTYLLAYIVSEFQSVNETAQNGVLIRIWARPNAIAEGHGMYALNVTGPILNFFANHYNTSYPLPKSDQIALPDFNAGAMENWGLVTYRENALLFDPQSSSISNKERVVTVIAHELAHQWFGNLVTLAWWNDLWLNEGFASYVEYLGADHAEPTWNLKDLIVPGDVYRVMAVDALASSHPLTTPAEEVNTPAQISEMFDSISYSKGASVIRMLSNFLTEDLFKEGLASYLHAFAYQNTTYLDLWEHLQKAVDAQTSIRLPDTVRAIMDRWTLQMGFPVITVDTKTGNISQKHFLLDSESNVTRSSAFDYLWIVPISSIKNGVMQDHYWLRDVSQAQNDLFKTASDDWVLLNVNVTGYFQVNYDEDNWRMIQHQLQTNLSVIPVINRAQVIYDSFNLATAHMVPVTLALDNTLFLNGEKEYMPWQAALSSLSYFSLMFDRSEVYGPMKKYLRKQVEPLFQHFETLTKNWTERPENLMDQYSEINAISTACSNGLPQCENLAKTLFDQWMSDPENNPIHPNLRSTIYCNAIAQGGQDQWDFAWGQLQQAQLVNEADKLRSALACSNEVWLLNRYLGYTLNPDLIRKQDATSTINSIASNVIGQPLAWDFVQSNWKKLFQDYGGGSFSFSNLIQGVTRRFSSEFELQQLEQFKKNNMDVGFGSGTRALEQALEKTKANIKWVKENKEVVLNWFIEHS
For each record, check the reported IC50: if it is below 300 nM write T, else write F.

Below, 5 compounds whose answers are already recorded.
{"COMPOUND": "NC(=O)N1N=C(c2ccccc2I)CC1c1c(Br)cccc1OCC(=O)NO (stereo not shown) [Compound 14x]", "EXPERIMENTAL TARGET": "UniProt P15145", "LABEL CLASS": "T"}
{"COMPOUND": "CC(=O)N1N=C(c2cccc3ccccc23)CC1c1ccccc1OCC(=O)NO (stereo not shown) [Compound 14p]", "EXPERIMENTAL TARGET": "UniProt P15145", "LABEL CLASS": "F"}
{"COMPOUND": "CC(=O)N1N=C(c2ccccc2Cl)CC1c1ccccc1OCC(=O)NO (stereo not shown) [Compound 14h]", "EXPERIMENTAL TARGET": "UniProt P15145", "LABEL CLASS": "T"}
{"COMPOUND": "CC(=O)N1N=C(c2cccc(Br)c2)CC1c1ccccc1OCC(=O)NO (stereo not shown) [Compound 14b]", "EXPERIMENTAL TARGET": "UniProt P15145", "LABEL CLASS": "F"}
{"COMPOUND": "CC(=O)N1N=C(c2ccccc2I)CC1c1c(Br)cccc1OCC(=O)NO (stereo not shown) [Compound 14w]", "EXPERIMENTAL TARGET": "UniProt P15145", "LABEL CLASS": "T"}

Input line: Hello, I'm reviewing records and need to know if IC50 of CC(=O)N1N=C(c2ccccc2I)CC1c1cc(Br)ccc1OCC(=O)NO (stereo not shown) [Compound 14u] is below 300 nM. Could you check?
Output line: F

Input line: Hello, I'm reviewing records and need to know if IC50 of COc1ccccc1C1=NN(C(C)=O)C(c2ccccc2OCC(=O)NO)C1 (stereo not shown) [Compound 14d] is below 300 nM. Could you check?
Output line: F

###

Readings of melting point for the listed compounds

These recorded examples may help you get a feel for the data.
{"COMPOUND": "NC(=O)N1N=C(c2ccccc2I)CC1c1c(Cl)cccc1OCC(=O)NO (centres unmarked) [Compound 14z]", "melting point": "190 to 192 °C"}
{"COMPOUND": "CC(=O)N1N=C(c2ccccc2I)CC1c1ccccc1OCC(=O)NO (centres unmarked) [Compound 14i]", "melting point": "174 to 176 °C"}
{"COMPOUND": "CC(=O)N1N=C(c2ccc(Cl)cc2Cl)CC1c1ccccc1OCC(=O)NO (centres unmarked) [Compound 14l]", "melting point": "128 to 130 °C"}
{"COMPOUND": "COc1cccc(C2=NN(C(C)=O)C(c3ccccc3OCC(=O)NO)C2)c1 (centres unmarked) [Compound 14e]", "melting point": "170 to 172 °C"}

Shift focus to the following entry.
Briefly, melting point measured for CC(=O)N1N=C(c2cccc3ccccc23)CC1c1ccccc1OCC(=O)NO (centres unmarked) [Compound 14p] : 198 to 200 °C
